- protocol-summary: VSVG counterscreen qHTS to identify inhibitors of SARS-CoV-2 cell entry (AID 1645847); note: nearly all actives have a fitted effect of over 65% in size
- measurement-setup: VSV-G pseudotyped particle entry, luciferase; series mostly up to 57.2 µM
Records with an inconclusive call do not appear. The source made the active and inactive calls. Calls come from the whole dose curve.
Please answer using one outcome listed in 1.0 = active, 0.0 = inactive

molecule | class-name
C=CC(=O)N[C@H]1CN(c2nc(Nc3cn(C)nc3OC)c3ncn(C)c3n2)C[C@@H]1F | 0.0
NCCNc1ccc(NCCN)c2c1C(=O)c1ccncc1C2=O | 1.0
CC(C)OC(=O)CCC/C=C\C[C@@H]1[C@@H](/C=C/[C@@H](O)COc2cccc(C(F)(F)F)c2)[C@H](O)C[C@@H]1O | 1.0
COc1cc([C@@H]2c3cc4c(cc3[C@@H](O[C@@H]3O[C@@H]5CO[C@@H](C)O[C@H]5[C@H](O)[C@H]3O)[C@H]3COC(=O)[C@H]23)OCO4)cc(OC)c1OP(=O)(O)O | 1.0

Dear colleague, could you share the recorded outcome for O=C(c1ccc(Nc2nc(C3CC3)cn3c(-c4cn[nH]c4)cnc23)c(F)c1)N1CCOCC1 when you have a moment?
1.0

Now consider CS(=O)(=O)N1CCC(NC(=O)c2[nH]ncc2NC(=O)c2c(Cl)cccc2Cl)CC1 .
1.0

Now consider NC(=O)/C(=C/n1cnc(-c2cc(C(F)(F)F)cc(C(F)(F)F)c2)n1)c1cncnc1 .
1.0

Now consider CO[C@H]1C[C@H](O[C@@H]2[C@H](C)O[C@H](O[C@@H]3/C(C)=C/C[C@@H]4C[C@@H](C[C@]5(C=C[C@H](C)[C@@H](C6CCCCC6)O5)O4)OC(=O)[C@@H]4C=C(C)C(O)[C@H]5OC/C(=C\C=C\[C@@H]3C)[C@]54O)C[C@@H]2OC)O[C@@H](C)[C@@H]1O (stereo partly drawn) .
1.0

Now consider CCc1cnn2c(NCc3ccc[n+]([O-])c3)cc(N3CCCC[C@H]3CCO)nc12 .
1.0

Now consider C=C1C[C@@H]2CC[C@@]34C[C@H]5O[C@H]6[C@@H](O3)[C@H]3O[C@H](CC[C@@H]3O[C@H]6[C@H]5O4)CC(=O)C[C@@H]3[C@@H](OC)[C@@H](C[C@H](O)CN)O[C@H]3C[C@H]3O[C@@H](CC[C@@H]1O2)C[C@@H](C)C3=C .
1.0

Now consider COc1cc(F)ccc1-c1ncnc(Nc2cccc(CS(C)(=N)=O)c2)n1 (stereo not drawn) .
1.0

Now consider CN1C(CC(=O)c2ccccc2)CCCC1CC(O)c1ccccc1 (stereo not drawn) .
1.0

Now consider CNC(=O)c1cccc(-c2ccc3c(N4CCOC[C@@H]4C)nc(N4CCOC[C@@H]4C)nc3n2)c1 .
1.0

Now consider COc1cccc2c1C(=O)c1c(O)c3c(c(O)c1C2=O)C[C@@](O)(/C(CO)=N/NC(=O)CCCCCN1C(=O)C=CC1=O)C[C@@H]3O[C@H]1C[C@H](N)[C@H](O)[C@H](C)O1 .
1.0

These entries and their values trace back to PubChem BioAssay (NCATS).
